Values of pKi reported for purified human autoBACE-2 (Homo sapiens (Human), UniProt Q9Y5Z0) appear below.
Numbers only, as −log10 of the molar value.

See these solved cases before continuing.
molecule	pKi
CN1C(=N)N[C@](C)(c2cc(-c3nnc(-c4ccc(Cl)cc4)o3)ccc2F)CS1(=O)=O [Example 25]	6.23
CN1C(=N)N[C@](C)(c2sc(-c3cc(-c4ccccc4)no3)cc2Cl)CS1(=O)=O [Example 14]	6.84
CN1C(=N)N[C@](C)(c2sc(-c3cn(-c4ccccc4)nn3)cc2Cl)CS1(=O)=O [Example 5]	6.55
CN1C(=N)N[C@](C)(c2sc(-c3nnc(-c4cccc5ccnn45)o3)cc2Cl)CS1(=O)=O [Example 34]	6.66
CN1C(=N)N[C@](C)(c2sc(-c3nnc(-c4ncco4)o3)cc2Cl)CS1(=O)=O [Example 41]	7.50
CN1C(=N)N[C@](C)(c2sc(-c3nnc(-c4ccc(C(F)(F)F)cc4)o3)cc2Cl)CS1(=O)=O [Example 18]	6.81
CN1C(=N)N[C@](C)(c2sc(-c3nnc(-c4ccc(OC(F)(F)F)cc4)o3)cc2Cl)CS1(=O)=O [Example 78]	6.84
CN1C(=N)N[C@](C)(c2sc3c(-c4cnn(-c5ccccc5)c4)cccc3c2F)CS1(=O)=O [Example 81]	6.47

List reported pKi for each of these molecules:
1. CN1C(=N)N[C@](C)(c2cc(-c3nnc(-c4ccccc4)o3)ccc2F)CS1(=O)=O [Example 24]
2. CN1C(=N)N[C@](C)(c2sc(-c3nnc(-c4ccc(Cl)cc4F)o3)cc2Cl)CS1(=O)=O [Example 57]
3. CN1C(=N)N[C@](C)(c2cc(-c3nnc(-c4cnco4)o3)ccc2F)CS1(=O)=O [Example 26]
4. CN1C(=N)N[C@](C)(c2sc(-c3nnc(-c4ccccn4)o3)cc2Cl)CS1(=O)=O [Example 21]
5. CN1C(=N)N[C@](C)(c2sc(-c3nnc(C4CC4)o3)cc2Cl)CS1(=O)=O [Example 48]
6. CN1C(=N)N[C@](C)(c2sc(-c3nnc(-c4cscn4)o3)cc2Cl)CS1(=O)=O [Example 37]
7. CN1C(=N)N[C@](C)(c2sc(-c3nnc(-c4cnn(C)c4)o3)cc2Cl)CS1(=O)=O [Example 45]

**A:**
5.83
7.78
6.10
7.23
6.94
7.16
6.65

**Q:** Please tell me: pKi of CN1C(=N)N[C@](C)(c2sc(-c3nnc(-c4ccc(F)cc4)o3)cc2Cl)CS1(=O)=O [Example 22] , system purified human autoBACE-2 (Homo sapiens (Human), UniProt Q9Y5Z0)?
**A:** 7.88
